This collection of values is drawn from patent US20250353873A1.

Test system: human APOE RNA
Test: Activity in APOE C57BL/6NTac-Apoeem7250 knock-in mice, single ICV bolus, 4 weeks (Example 10)
Format: in vivo
Conditions: Cortex; C57BL/6NTac-Apoeem7250 knock-in mice, single ICV bolus 300 μg, 4 weeks (Table 22)
Experimental: Modified oligonucleotides described above were tested in the APOE C57BL/6NTac-Apoeem7250 knock-in mouse model described above. APOE C57BL/6NTac-Apoeem7250 knock-in mice were divided into groups of 2-4 mice each. […] Four weeks post treatment, mice were sacrificed and RNA was extracted from cortical brain tissue and spinal cord for quantitative real-time RT-PCR analysis of RNA expression of APOE using human primer probe set RTS3073 (described herein above). […]
Strand notation (5' to 3'): a small letter for the sugar, then the base; units joined by * are phosphorothioate-linked, units joined directly phosphodiester-linked; [ ] holds rarer units or linkages, { } end groups; capitals alone tell only the bases. [ms] = mesyl phosphoramidate linkage; e = 2'-O-(2-methoxyethyl) (MOE); k = constrained ethyl (cEt); [5mC] = 5-methylcytosine; d = 2'-deoxy (DNA)
Assay Metric: APOE RNA (% control) Cortex
Express your answer in % control, writing the number without its unit.

Solved cases (3 shown):
[[record]]
substance = "1693105: 6-10-4 MOE gapmer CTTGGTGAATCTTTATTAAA, linkages sosssszzzssssszssss (e[5mC]*eTeT*eG*eG*eT*dG[ms]dA[ms]dA[ms]dT*d[5mC]*dT*dT*dT*dA[ms]dT*eT*eA*eA*eA) [compound 1693105]"
tested_target = "human APOE RNA"
reading = 65

[[record]]
substance = "1736514 (e[5mC]*eTeT*eG*kG*kT*dG[ms]dA[ms]dA[ms]dT*d[5mC]*dT*dT*dT*dA[ms]dT*eT*eA*eA*eA; antisense) [Compound 1736514]"
tested_target = "human APOE RNA"
reading = 28

[[record]]
substance = "1736535 (e[5mC]*eT*eT*eG*eGkT*dG[ms]dA[ms]dA[ms]dT*d[5mC]*dT*dT*dT*dA[ms]dT*eT*eA*eA*eA; antisense) [Compound 1736535]"
tested_target = "human APOE RNA"
reading = 39


Query block: Provide APOE RNA (% control) Cortex, recorded with human APOE RNA, of 1736536 (e[5mC]*eT*eT*eG*kGkT*dG[ms]dA[ms]dA[ms]dT*d[5mC]*dT*dT*dT*dA[ms]dT*eT*eA*eA*eA; antisense) [Compound 1736536]
Result block: 31

Query block: # lookup: human APOE RNA APOE RNA (% control) Cortex, key = 1736528 (e[5mC]*eT*eT*eG*eG*eTdG[ms]dA[ms]dA[ms]dT*d[5mC]*dT*dT*dT*dA[ms]dT*kT*eA*eA*eA; antisense) [Compound 1736528]
Result block: 57

Query block: Give APOE RNA (% control) Cortex; test system human APOE RNA; substance 1736532 (e[5mC]*eT*eT*eG*kG*kTdG[ms]dA[ms]dA[ms]dT*d[5mC]*dT*dT*dT*dA[ms]dT*eT*eA*eA*eA; antisense) [Compound 1736532]
Result block: 30

Query block: State APOE RNA (% control) Cortex on human APOE RNA. Entry: 1736534 (e[5mC]*eT*eT*eG*eGeT*dG[ms]dA[ms]dA[ms]dT*d[5mC]*dT*dT*dT*dA[ms]dT*kT*kA*eA*eA; antisense) [Compound 1736534]
Result block: 31

Query block: Tell me its APOE RNA (% control) Cortex on human APOE RNA: 1736531 (e[5mC]*eT*eT*eG*eG*kTdG[ms]dA[ms]dA[ms]dT*d[5mC]*dT*dT*dT*dA[ms]dT*eT*eA*eA*eA; antisense) [Compound 1736531]
Result block: 42
